study-target: HIF-1α (Homo sapiens, UniProt Q16665)
Construct: endogenous in cells; host or cells: ARPE-19 (ATCC CRL-2302)
Sequence (Q16665 whole entry): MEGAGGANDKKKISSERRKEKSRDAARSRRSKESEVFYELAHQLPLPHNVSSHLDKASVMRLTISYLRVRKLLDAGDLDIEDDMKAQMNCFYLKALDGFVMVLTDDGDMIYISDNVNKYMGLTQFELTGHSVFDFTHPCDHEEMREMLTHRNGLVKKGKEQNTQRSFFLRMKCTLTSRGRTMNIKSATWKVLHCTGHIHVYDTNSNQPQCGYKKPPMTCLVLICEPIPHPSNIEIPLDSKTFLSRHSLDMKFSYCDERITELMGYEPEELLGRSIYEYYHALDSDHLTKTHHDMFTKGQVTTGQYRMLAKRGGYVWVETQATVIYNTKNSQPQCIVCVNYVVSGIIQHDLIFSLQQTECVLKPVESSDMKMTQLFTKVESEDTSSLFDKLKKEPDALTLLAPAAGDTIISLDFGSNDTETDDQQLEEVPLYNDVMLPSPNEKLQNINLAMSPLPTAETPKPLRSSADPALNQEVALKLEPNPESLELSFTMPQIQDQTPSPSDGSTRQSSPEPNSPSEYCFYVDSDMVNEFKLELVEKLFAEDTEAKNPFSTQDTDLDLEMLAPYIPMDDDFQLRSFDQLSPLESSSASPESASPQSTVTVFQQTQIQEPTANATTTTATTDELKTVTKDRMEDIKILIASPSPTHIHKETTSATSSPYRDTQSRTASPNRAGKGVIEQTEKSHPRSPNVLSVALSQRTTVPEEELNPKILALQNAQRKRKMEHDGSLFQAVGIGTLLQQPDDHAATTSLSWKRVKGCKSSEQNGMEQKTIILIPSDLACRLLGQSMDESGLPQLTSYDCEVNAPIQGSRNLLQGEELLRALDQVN
test-summary: Analysis of HIF-1α protein expression (Western blot) in ARPE-19 cells under mixed hypoxic condition
Assay type: cell-based
condition-notes: values marked * in the table, mixed hypoxic condition (1% oxygen + CoCl2) for 24 hours, concentration range at which HIF-1α expression is reduced by 50% vs untreated control, read-out: IC50 HIF-1α, Hypoxia(24h)
observation-type: DC50

The following molecules have reported results that may help.
molecule="[2H]C([2H])([2H])n1cc(Nc2cc(F)cc(CNC(=O)c3ncnc4nc(C5CCCC5)[nH]c34)c2)cn1 [Example 151]" value_measured="< 100 nM"
molecule="O=C(NCc1cc(F)cc(-c2cnn(-c3cscn3)c2)c1)c1ncnc2nc(C3CCCC3)[nH]c12 [Example 141]" value_measured="< 100 nM"
molecule="O=C(NCc1cc(F)cc(-c2cnn(-c3ccc(F)cc3)c2)c1)c1ncnc2nc(C3CCC(F)(F)C3)[nH]c12 (centres unmarked) [Example 80]" value_measured="< 100 nM"
molecule="O=C(NCc1cc(F)cc(-n2cc(-c3ccc(F)cc3)nn2)c1)c1ncnc2nc(C3CCCC3)[nH]c12 [Example 116]" value_measured="100 to 1000 nM"

Response field DC50 (HIF-1α (Homo sapiens, UniProt Q16665)) for item [2H]c1c([2H])c([2H])c(-n2cc(-c3cc(F)cc(CNC(=O)c4ncnc5nc(C6CCCC6)[nH]c45)c3)cn2)c([2H])c1[2H] [Example 145] : < 100 nM
